All values here come from patent US9169279B2.

PROTOCOL: Dog PK study: zoledronic acid in serum after IV or oral capsule dosing, enteric or non-enteric coated, with or without excess coformer (LC/MS/MS)
Type: in vivo, Beagle dogs
CONDITION_LABEL: beagle, iv, 0.12 mg/kg, Leg 38, 0.12 mg/kg IV, saline solution, 4 h, read-out: Average serum concentration of 4 dogs
PROPERTY_NAME: concentration at 4 h (ng/mL)
Supply the numeric figure in ng/mL, leaving out any unit text.

`O=P(O)(O)C(O)(Cn1ccnc1)P(=O)(O)O` yielded concentration at 4 h of 15.1

* * *

PROTOCOL: Dog PK study: zoledronic acid in serum after IV or oral capsule dosing, enteric or non-enteric coated, with or without excess coformer (LC/MS/MS)
Format: in vivo, Beagle dogs
CONDITION_LABEL: beagle, po, 56 mg, Leg 7, 56.0 mg, enteric coated capsule, PO, 1.5 h, read-out: Average serum concentration of 5 dogs
PROPERTY_NAME: concentration at 1.5 h
Answer with the value and then the unit.

O=P(O)(O)C(O)(Cn1ccnc1)P(=O)(O)O [Zoledronic acid monohydrate] yielded concentration at 1.5 h of 86.1 ng/mL
